# Test system: Calf thymus DNA
# assay_info: Binding affinity to calf thymus DNA assessed as binding constant by UV-Vis absorption spectroscopic method
# Format: nucleic-acid assay
# study_conditions: Bos taurus
measurement_type: KB (×10⁵ /M)
Give bare numbers, in ×10⁵ /M.

structure_smiles	test_system	measurement_type	recorded_value
C[n+]1cc(-c2c3ccccc3c(-c3cc4ccccc4[n+](C)c3)c3ccccc23)cc2ccccc21	Calf thymus DNA	KB	2.8

Then this compound:
The compound identified as C[n+]1cccc(-c2c3ccccc3c(-c3ccc[n+](C)c3)c3ccccc23)c1 registered its KB at 1.8
